// provenance: PubChem BioAssay (NCI)

- Test system: CAKI-1 renal
- assay comment: NCI-60 one-dose screen, 48 h
- particulars: 10 µM unless noted
Compounds without any hit were thinned out: in the full panel of roughly 83,000, 20% have a hit. Active and inactive are the calls of the source. The calls were made as follows: active = growth percent below 10; inactive = the rest.
Entry note: the call must match one of label 1 (active), label 0 (inactive)

Test call for this compound, please: N#Cc1cnc(NCCc2ccncc2)nc1-n1cnc2ccccc21
label 1

Test call for this compound, please: CCN1CCN(c2cc(C(=O)Nc3nc(-c4cc(OC)c(OC)c(OC)c4)cs3)cc(C(F)(F)F)c2)CC1
label 0

Test call for this compound, please: CC(C)N1CCN(Cc2ccc3c(NNC(=O)c4ccccc4)nc4cc(F)ccc4n23)CC1
label 0

Test call for this compound, please: CCCCCC(=O)OCC(=O)O[C@@H]1C[C@]2(C(C)C)O[C@@]1(C)[C@@H]1CC[C@@H](C)[C@H]1[C@@H]2OC(=O)/C=C/c1ccccc1
label 1

Test call for this compound, please: NC(=O)c1c(NC(=O)c2ccccc2)sc2c1CCC(=O)C2
label 1

Test call for this compound, please: O=c1oc2c(cnc3ccccc32)cc1-c1ccsc1
label 0

Test call for this compound, please: CCSc1nc(NC)c2cc(-c3ccc(C(F)(F)F)cc3)ccc2n1
label 0

Test call for this compound, please: CCNc1cc(-c2cccc(OC(F)(F)F)c2)nc2ccc(N3CCCC3)cc12
label 0

Test call for this compound, please: Cc1ccc2c(n1)C(=O)c1[nH]c3ccccc3c1C2=O
label 0

Test call for this compound, please: O=C(CN1C(=O)CCC1=O)Nc1ncc(Cc2ccc(F)cc2)s1
label 0

Test call for this compound, please: COc1cc(-c2csc(NC(=O)c3cc(-n4cnc(C)c4)cc(C(F)(F)F)c3)n2)cc(OC)c1OC
label 0

Test call for this compound, please: O=C1N[C@@H]2NC(=[N+]3CCOCC3)N[C@@H]2N1
label 0

Test call for this compound, please: C=C(C)[C@@H]1CC[C@]2(C(=O)OC)CC[C@]3(C)[C@H](CC[C@@H]4[C@@]5(C)C/C(=C/NC(N)=S)C(=O)C(C)(C)[C@@H]5CC[C@]43C)[C@@H]12
label 0

Test call for this compound, please: CN1CCN(C(=O)OCc2ccc3c(Cl)cc(Cl)c(O)c3n2)CC1
label 0

Test call for this compound, please: C/C(=C(/c1ccc(Cl)cc1)c1ccc(OCCN2CCCC2)cc1)c1ccc(Cl)cc1
label 0

Test call for this compound, please: CCOc1nc(-c2ccccc2)cc2c(O)c(C(=O)NN)[nH]c(=O)c12
label 0

Test call for this compound, please: COC(=O)c1c2c(c(C)[n+]([O-])c1C)C(=O)C(NCc1ccc(Cl)cc1)=CC2=O
label 0

Test call for this compound, please: N#Cc1nc(-c2ccccc2)oc1S(=O)(=O)N1CCOCC1
label 0

Test call for this compound, please: CNc1nc(S(=O)c2ccc(C#N)cc2)nc2ccccc12 (stereo not given)
label 0

Test call for this compound, please: CC1=C(Nc2ccc(N3CCN(C)CC3)cc2)C(=O)c2cncnc2C1=O
label 0
